Entry source: PubChem BioAssay AID328

The entries below come with measured T/C values attached.
- Test system: BDF1 mice, P388 leukemia ip, median survival T/C
- Assay comment: NCI In Vivo Anticancer Drug Screen. Data for tumor model P388 Leukemia (intraperitoneal) in B6D2F1 (BDF1) mice
- Condition summary: endpoint: median survival time; dose: 100.0 mg/kg/injection; schedule: Q01DX009 (ip); vehicle: other; higher = longer survival
Toxic doses and inconclusive results are not listed.

Sample answers from the record:
{"Compound": "COc1ccc(CN(CCOC(=O)c2ccc(OC)cc2)CCN(CCOC(=O)c2ccc(OC)cc2)Cc2ccc(OC)cc2)cc1", "Observed value": "86 % of control"}
{"Compound": "CCOC(=O)C1=C(C)NC(C)=C(C(=O)OCC)C1c1cc(OC)c(OC)c(OC)c1", "Observed value": "96 % of control"}
{"Compound": "COC1C(OC(=O)c2ccc(C)[nH]2)C(O)C(Oc2ccc3c(O)c(NC(=O)c4ccc(O)c(CC=C(C)C)c4)c(=O)oc3c2Cl)OC1(C)C (stereo not given)", "Observed value": "104 % of control"}
{"Compound": "COc1c(Cl)cc(Cl)cc1Cl", "Observed value": "90 % of control"}

INPUT: So what does the record say about T/C for O=C(O)CCN1CCCc2ccccc21 ?
OUTPUT: 104 % of control
